assay: Plasma pharmacokinetics after intramuscular enrofloxacin alone or with per os propolis (HPLC-FL, non-compartmental analysis); conditions: female, New Zealand White, rabbit, plasma, im, 10 mg/kg, Tmax, after ENR 10 mg/kg IM alone, n = 6, CPR = metabolite of ENR
measured.metric: Tmax

compound | value.reported
CCN1CCN(c2cc3c(cc2F)c(=O)c(C(=O)O)cn3C2CC2)CC1 [ENR, enrofloxacin] | 28.2 min

---

assay: Plasma pharmacokinetics after intramuscular enrofloxacin alone or with per os propolis (HPLC-FL, non-compartmental analysis); conditions: female, New Zealand White, rabbit, plasma, im, 10 mg/kg, Cmax, after ENR 10 mg/kg IM alone, n = 6, CPR = metabolite of ENR

compound | unit.label | Cmax
CCN1CCN(c2cc3c(cc2F)c(=O)c(C(=O)O)cn3C2CC2)CC1 [ENR, enrofloxacin] | ng/mL | 2980
